# Test system: rice
# assay-comment: Phytotoxicity test for upland field crops (foliar treatment test)
# Assay type: in vivo
# condition-notes: 100 g ai/ha, Rice (7 days after treatment)
Measured Foliar treatment phytotoxicity, Rice values are reported for all entries that follow.
Lab note: record the figure alone, no unit after it.

input: For the compound Cn1nnc(COCc2nc(C(F)(F)Cl)ccc2C(=O)Nc2nnnn2C)n1 , what Foliar treatment phytotoxicity, Rice is on record?
output: 6

###

# Tested on: wheat
# assay-comment: Phytotoxicity test for upland field crops (foliar treatment test)
# Format: in vivo
# Set-up: key: 0 (no harm); 9 (complete withered)
# condition-notes: 50 g ai/ha, Wheat (14 days after treatment)
measured-property: Foliar treatment phytotoxicity, Wheat
Lab note: record the figure alone, no unit after it.

input: For the compound Cn1nnc(CSCc2nc(C(F)(F)F)ccc2C(=O)Nc2nnnn2C)n1 [Compound No. 2-102] , what Foliar treatment phytotoxicity, Wheat is on record?
output: 0

input: For the compound CON(Cc1nnn(C)n1)c1nc(C(F)(F)F)ccc1C(=O)Nc1nnnn1C [Compound No. 2-30] , what Foliar treatment phytotoxicity, Wheat is on record?
output: 1

input: For the compound Cn1nnc(COCc2nc(C(F)(F)Cl)ccc2C(=O)Nc2nnnn2C)n1 [Compound No. 2-78] , what Foliar treatment phytotoxicity, Wheat is on record?
output: 0

input: For the compound Cn1nc(COCc2nc(C(F)(F)F)ccc2C(=O)Nc2nnnn2C)nc1Br [Compound No. 2-136] , what Foliar treatment phytotoxicity, Wheat is on record?
output: 0

input: For the compound Cn1nnc(COCc2nc(C(F)(F)C(F)(F)F)ccc2C(=O)Nc2nnnn2C)n1 [Compound No. 2-81] , what Foliar treatment phytotoxicity, Wheat is on record?
output: 0

input: For the compound CCCn1nnnc1NC(=O)c1ccc(C(F)(F)F)nc1COCc1ncn(C)n1 [Compound No. 2-114] , what Foliar treatment phytotoxicity, Wheat is on record?
output: 0

input: For the compound Cn1ncnc1COCc1nc(C(F)(F)F)ccc1C(=O)Nc1nnnn1C [Compound No. 1-102] , what Foliar treatment phytotoxicity, Wheat is on record?
output: 2

###

# Test system: cotton
# assay-comment: Phytotoxicity test for field crops (soil treatment test)
# Format: in vivo
# condition-notes: 50 g ai/ha; Cotton (20 days after treatment)
Measured Soil treatment phytotoxicity, Cotton values are reported for all entries that follow.
Lab note: record the figure alone, no unit after it.

Cn1nnnc1COCc1nc(C(F)(F)F)ccc1C(=O)Nc1nnnn1C = 1
Cn1nnc(COc2nc(C(F)(F)F)ccc2C(=O)Nc2nnnn2C)n1 = 2
Cn1nnc(COCc2nc(C(F)F)ccc2C(=O)Nc2nnnn2C)n1 = 6

Now look at this one.
input: For the molecule Cn1ncnc1COCc1nc(C(F)(F)F)ccc1C(=O)Nc1nnnn1C , what Soil treatment phytotoxicity, Cotton is on record?
output: 0

###

Measured Foliar treatment phytotoxicity, Rice values are reported for all entries that follow.
# System: rice
# assay-comment: Phytotoxicity test for upland field crops (foliar treatment test)
# Type: in vivo
# condition-notes: 100 g ai/ha, Rice (7 days after treatment)
Lab note: record the figure alone, no unit after it.

Cn1nc(COCc2nc(C(F)(F)F)ccc2C(=O)Nc2nnnn2C)nc1Cl = 4
Cn1nnnc1NC(=O)c1ccc(C(F)(F)F)nc1OCc1nnnn1C(F)F = 4
CCOC(=O)OC(C)N(C(=O)c1ccc(C(F)(F)F)nc1COCc1nnn(C)n1)c1nnnn1C (stereo not drawn) = 0
Cn1nc(COCc2nc(C(F)(F)F)ccc2C(=O)Nc2nnnn2C)nc1Br = 5
Cn1nnc(COc2nc(C(F)(F)F)ccc2C(=O)Nc2nnnn2C)n1 = 5

input: For the compound Cn1nnc(CSCc2nc(C(F)(F)F)ccc2C(=O)Nc2nnnn2C)n1 , what Foliar treatment phytotoxicity, Rice is on record?
output: 4

input: For the compound Cn1nc(COCc2nc(C(F)(F)F)ccc2C(=O)Nc2nnnn2C)nc1C#N , what Foliar treatment phytotoxicity, Rice is on record?
output: 3

input: For the compound Cn1nnc(COCc2nc(C(F)F)ccc2C(=O)Nc2nnnn2C)n1 , what Foliar treatment phytotoxicity, Rice is on record?
output: 6
